Data credit: patent US20170107257A1

testSystem: hAPJ (Homo sapiens, UniProt P35414)
protocolDetails: cAMP assay (DiscoverX)
Type: cell-based
Numbered stars: 1 amine (or outer) side, 2 acyl side, 3 side chain; on linkers, the order of the positions; unused ones are H or OH. Bridge positions count the residues as written; N and C are the ends. Square brackets hold non-standard residues; d marks the D form. Peptide text beside a SMILES is read from it. ξ: configuration not given here. ξAbu(3ξ-yl) = CC(C(N[*:1])C(=O)[*:2])[*:3]; pGlu = O=C1CC[C@@H](C(=O)O)N1; ξC = NC(CS)C(=O)O
readoutLabel: log10 EC50 (log10 of the value in nM)

molecule	log10 EC50
CSCC[C@H](NC(=O)C1CSC(C)C(NC(=O)[C@H](CC(C)C)NC(=O)[C@H](CCCNC(=N)N)NC(=O)[C@@H]2CCCN2C(=O)[C@H](CCCNC(=N)N)NC(=O)[C@@H]2CCC(=O)N2)C(=O)N[C@@H](Cc2c[nH]cn2)C(=O)N[C@@H](CCCCN)C(=O)NCC(=O)N1)C(=O)N1CCC[C@H]1C(=O)N[C@@H](Cc1ccccc1)C(=O)O (stereo partly drawn) [pEApeM8, pERPRLmeLanHKGmeLanMPF] ([pGlu]RPRL[ξAbu(3ξ-yl)]HKG[ξC]MPF-OH; thioether 6-10; C-terminus assumed)	2.10
CSCC[C@H](NC(=O)[C@@H]1CCCN1C(=O)CNC(=O)C1CSC(C)C(NC(=O)[C@H](CC(C)C)NC(=O)[C@H](CCCNC(=N)N)NC(=O)[C@@H]2CCCN2C(=O)[C@H](CCCNC(=N)N)NC(=O)[C@@H]2CCC(=O)N2)C(=O)N[C@@H](Cc2c[nH]cn2)C(=O)N[C@@H](CCCCN)C(=O)N1)C(=O)N1CCC[C@H]1C(=O)O (stereo partly drawn) [pEApeM6deltaF, pERPRLmeLanHKmeLanGPMP] ([pGlu]RPRL[ξAbu(3ξ-yl)]HK[ξC]GPMP-OH; thioether 6-9; C-terminus assumed)	2.10
CSCC[C@H](NC(=O)[C@@H]1CCCN1C(=O)CNC(=O)C1CSC(C)C(NC(=O)[C@H](CC(C)C)NC(=O)[C@H](CCCNC(=N)N)NC(=O)[C@@H]2CCCN2C(=O)[C@H](CCCNC(=N)N)NC(=O)[C@@H]2CCC(=O)N2)C(=O)N[C@@H](Cc2c[nH]cn2)C(=O)N[C@@H](CCCCN)C(=O)N1)C(=O)N1CCC[C@H]1C(=O)N[C@@H](Cc1ccccc1)C(N)=O (stereo partly drawn) [amidated pEApeM6, pERPRLmeLanHKmeLanGPMPF-NH2] ([pGlu]RPRL[ξAbu(3ξ-yl)]HK[ξC]GPMPF-NH2; thioether 6-9)	1.90
CSCC[C@H](NC(=O)[C@@H]1CCCN1C(=O)CNC(=O)[C@H](CCCCN)NC(=O)C1CSC(C)C(NC(=O)[C@@H]2CCCN2C(=O)[C@H](CCCNC(=N)N)NC(=O)[C@@H]2CCC(=O)N2)C(=O)N[C@@H](CCCNC(=N)N)C(=O)N[C@@H](CC(C)C)C(=O)N[C@@H](C)C(=O)N1)C(=O)N1CCC[C@H]1C(=O)N[C@@H](Cc1ccccc1)C(=O)O (stereo partly drawn) [pEApeI3c, pERPmeLanRLAmeLanKGPMPF] ([pGlu]RP[ξAbu(3ξ-yl)]RLA[ξC]KGPMPF-OH; thioether 4-8; C-terminus assumed)	1.23
CSCC[C@H](NC(=O)[C@@H]1CCCN1C(=O)C1CSC(C)C(NC(=O)[C@H](CC(C)C)NC(=O)[C@H](CCCNC(=N)N)NC(=O)[C@@H]2CCCN2C(=O)[C@H](CCCNC(=N)N)NC(=O)[C@@H]2CCC(=O)N2)C(=O)N[C@@H](Cc2c[nH]cn2)C(=O)N[C@@H](CCCCN)C(=O)N1)C(=O)N1CCC[C@H]1C(=O)N[C@@H](Cc1ccccc1)C(=O)O (stereo partly drawn) [pEApeM5, pERPRLmelanHKmelanPMPF] ([pGlu]RPRL[ξAbu(3ξ-yl)]HK[ξC]PMPF-OH; thioether 6-9; C-terminus assumed)	0.85
CSCC[C@@H]1NC(=O)[C@@H]2CCCN2C(=O)CNC(=O)C(NC(=O)[C@H](Cc2c[nH]cn2)NC(=O)[C@H](C)NC(=O)[C@H](CC(C)C)NC(=O)[C@H](CCCNC(=N)N)NC(=O)[C@@H]2CCCN2C(=O)[C@H](CCCNC(=N)N)NC(=O)[C@@H]2CCC(=O)N2)CSCC(C(=O)N[C@@H](Cc2ccccc2)C(=O)O)NC1=O (stereo partly drawn)	0.30

----------
Recorded Ratio β-arrestin/cAMP, one value per entry.
testSystem: hAPJ (Homo sapiens, UniProt P35414)
Sequence (P35414 1-380): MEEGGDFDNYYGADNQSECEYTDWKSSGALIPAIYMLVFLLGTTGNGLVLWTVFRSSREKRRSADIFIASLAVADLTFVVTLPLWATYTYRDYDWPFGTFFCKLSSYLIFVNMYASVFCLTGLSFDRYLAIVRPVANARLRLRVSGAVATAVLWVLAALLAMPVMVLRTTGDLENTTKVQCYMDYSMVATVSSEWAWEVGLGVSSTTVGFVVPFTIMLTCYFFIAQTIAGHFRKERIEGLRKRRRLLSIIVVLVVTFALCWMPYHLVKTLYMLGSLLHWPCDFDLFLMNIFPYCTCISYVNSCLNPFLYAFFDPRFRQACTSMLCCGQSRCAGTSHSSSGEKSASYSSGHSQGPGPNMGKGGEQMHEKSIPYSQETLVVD
protocolDetails: beta arrestin assay (DiscoverX)
Assay type: cell-based
protocolConditions: ratio of β-arrestin EC50 to cAMP EC50
Numbered stars: 1 amine (or outer) side, 2 acyl side, 3 side chain; on linkers, the order of the positions; unused ones are H or OH. Bridge positions count the residues as written; N and C are the ends. Square brackets hold non-standard residues; d marks the D form. Peptide text beside a SMILES is read from it. ξ: configuration not given here. ξAbu(3ξ-yl) = CC(C(N[*:1])C(=O)[*:2])[*:3]; pGlu = O=C1CC[C@@H](C(=O)O)N1; ξC = NC(CS)C(=O)O

compound	Ratio β-arrestin/cAMP
CSCC[C@H](NC(=O)[C@@H]1CCCN1C(=O)CNC(=O)C1CSC(C)C(NC(=O)[C@H](CC(C)C)NC(=O)[C@H](CCCNC(=N)N)NC(=O)[C@@H]2CCCN2C(=O)[C@H](CCCNC(=N)N)NC(=O)[C@@H]2CCC(=O)N2)C(=O)N[C@@H](Cc2c[nH]cn2)C(=O)N[C@@H](CCCCN)C(=O)N1)C(=O)N1CCC[C@H]1C(=O)N[C@@H](Cc1ccccc1)C(N)=O (some centres unmarked) [amidated pEApeM6, pERPRLmeLanHKmeLanGPMPF-NH2] ([pGlu]RPRL[ξAbu(3ξ-yl)]HK[ξC]GPMPF-NH2; thioether 6-9)	0.75
CSCC[C@H](NC(=O)[C@@H]1CCCN1C(=O)CNC(=O)[C@H](CCCCN)NC(=O)C1CSC(C)C(NC(=O)[C@@H]2CCCN2C(=O)[C@H](CCCNC(=N)N)NC(=O)[C@@H]2CCC(=O)N2)C(=O)N[C@@H](CCCNC(=N)N)C(=O)N[C@@H](CC(C)C)C(=O)N[C@@H](C)C(=O)N1)C(=O)N1CCC[C@H]1C(=O)N[C@@H](Cc1ccccc1)C(=O)O (some centres unmarked) [pEApeI3c, pERPmeLanRLAmeLanKGPMPF] ([pGlu]RP[ξAbu(3ξ-yl)]RLA[ξC]KGPMPF-OH; thioether 4-8; C-terminus assumed)	167
CC(C)C[C@H](NC(=O)[C@H](CCCNC(=N)N)NC(=O)[C@@H]1CCCN1C(=O)[C@H](CCCNC(=N)N)NC(=O)[C@@H]1CCC(=O)N1)C(=O)NC1CSCC(C(=O)N2CCC[C@H]2C(=O)N[C@@H](Cc2ccccc2)C(=O)O)NC(=O)[C@@H]2CCCN2C(=O)CNC(=O)[C@H](CCCCN)NC(=O)[C@H](Cc2c[nH]cn2)NC1=O (single isomer, unassigned) [pEApeM9S II, pERPRLLanHKGPLanPF]	200
CSCC[C@H](NC(=O)[C@@H]1CCCN1C(=O)CNC(=O)[C@H](CCCCN)NC(=O)C1CSC(C)C(NC(=O)[C@H](CCCNC(=N)N)NC(=O)[C@@H]2CCCN2C(=O)[C@H](CCCNC(=N)N)NC(=O)[C@@H]2CCC(=O)N2)C(=O)N[C@@H](CC(C)C)C(=O)N[C@@H](C)C(=O)N1)C(=O)N1CCC[C@H]1C(=O)N[C@@H](Cc1ccccc1)C(=O)O (some centres unmarked) [pEApeI4a, pERPRmeLanLAmeLanKGPMPF] ([pGlu]RPR[ξAbu(3ξ-yl)]LA[ξC]KGPMPF-OH; thioether 5-8; C-terminus assumed)	87
CSCC[C@H](NC(=O)[C@@H]1CCCN1C(=O)CNC(=O)C1CSC(C)C(NC(=O)[C@H](CC(C)C)NC(=O)[C@H](CCCNC(=N)N)NC(=O)[C@@H]2CCCN2C(=O)[C@H](CCCNC(=N)N)NC(=O)[C@@H]2CCC(=O)N2)C(=O)N[C@@H](Cc2c[nH]cn2)C(=O)N[C@@H](CCCCN)C(=O)N1)C(=O)N1CCC[C@H]1C(=O)O (some centres unmarked) [pEApeM6deltaF, pERPRLmeLanHKmeLanGPMP] ([pGlu]RPRL[ξAbu(3ξ-yl)]HK[ξC]GPMP-OH; thioether 6-9; C-terminus assumed)	3
